# Target System: T1, TrfA wt (G254D/S267L, 33 kDa) (plasmid RK2, UniProt P07676 98-382, G254D;S267L)
# T1 sequence: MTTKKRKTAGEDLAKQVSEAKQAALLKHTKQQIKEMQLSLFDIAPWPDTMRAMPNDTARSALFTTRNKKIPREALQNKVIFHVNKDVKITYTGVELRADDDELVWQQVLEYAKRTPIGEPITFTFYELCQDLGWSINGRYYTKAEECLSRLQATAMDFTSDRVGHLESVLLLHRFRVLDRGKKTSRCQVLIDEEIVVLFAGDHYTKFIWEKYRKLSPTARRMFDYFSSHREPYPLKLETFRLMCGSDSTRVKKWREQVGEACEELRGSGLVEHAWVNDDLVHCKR
# Experiment Description: UV crosslinking

Binder: 56T (dsDNA, 5-Br-dU at T56 of top strand) DNA 1: CCTGCGGTATTGACACTTGAGGGGCGCGACTACTGACAGATGAGGGGCGCGATCCTTGACACTTGAGGGGCAGAGTGATGACAGATGAGGGGCGCACCTATTGACATTTGAGGGGCTGTCCACAGGCAG DNA 2: CTGCCTGTGGACAGCCCCTCAAATGTCAATAGGTGCGCCCCTCATCTGTCATCACTCTGCCCCTCAAGTGTCAAGGATCGCGCCCCTCATCTGTCAGTAGTCGCGCCCCTCAAGTGTCAATACCGCAGG
binding result: binds
--
Binder: 57T (dsDNA, 5-Br-dU at T57 of top strand) DNA 1: CCTGCGGTATTGACACTTGAGGGGCGCGACTACTGACAGATGAGGGGCGCGATCCTTGACACTTGAGGGGCAGAGTGATGACAGATGAGGGGCGCACCTATTGACATTTGAGGGGCTGTCCACAGGCAG DNA 2: CTGCCTGTGGACAGCCCCTCAAATGTCAATAGGTGCGCCCCTCATCTGTCATCACTCTGCCCCTCAAGTGTCAAGGATCGCGCCCCTCATCTGTCAGTAGTCGCGCCCCTCAAGTGTCAATACCGCAGG
binding result: binds
--
Binder: 71B (dsDNA, 5-Br-dU in bottom strand: CAAGTG[BrdU]CAAGG) DNA 1: CCTGCGGTATTGACACTTGAGGGGCGCGACTACTGACAGATGAGGGGCGCGATCCTTGACACTTGAGGGGCAGAGTGATGACAGATGAGGGGCGCACCTATTGACATTTGAGGGGCTGTCCACAGGCAG DNA 2: CTGCCTGTGGACAGCCCCTCAAATGTCAATAGGTGCGCCCCTCATCTGTCATCACTCTGCCCCTCAAGTGTCAAGGATCGCGCCCCTCATCTGTCAGTAGTCGCGCCCCTCAAGTGTCAATACCGCAGG
binding result: binds
